target: human TLR9 (Homo sapiens); test: TLR9 inhibition reporter assay (HEK-Blue cells, SEAP reporter, ODN2006 stimulation); conditions: HEK-Blue cells overexpressing human TLR9, SEAP reporter, ODN2006 5 nM
Sequence (Q9NR96 26-1032): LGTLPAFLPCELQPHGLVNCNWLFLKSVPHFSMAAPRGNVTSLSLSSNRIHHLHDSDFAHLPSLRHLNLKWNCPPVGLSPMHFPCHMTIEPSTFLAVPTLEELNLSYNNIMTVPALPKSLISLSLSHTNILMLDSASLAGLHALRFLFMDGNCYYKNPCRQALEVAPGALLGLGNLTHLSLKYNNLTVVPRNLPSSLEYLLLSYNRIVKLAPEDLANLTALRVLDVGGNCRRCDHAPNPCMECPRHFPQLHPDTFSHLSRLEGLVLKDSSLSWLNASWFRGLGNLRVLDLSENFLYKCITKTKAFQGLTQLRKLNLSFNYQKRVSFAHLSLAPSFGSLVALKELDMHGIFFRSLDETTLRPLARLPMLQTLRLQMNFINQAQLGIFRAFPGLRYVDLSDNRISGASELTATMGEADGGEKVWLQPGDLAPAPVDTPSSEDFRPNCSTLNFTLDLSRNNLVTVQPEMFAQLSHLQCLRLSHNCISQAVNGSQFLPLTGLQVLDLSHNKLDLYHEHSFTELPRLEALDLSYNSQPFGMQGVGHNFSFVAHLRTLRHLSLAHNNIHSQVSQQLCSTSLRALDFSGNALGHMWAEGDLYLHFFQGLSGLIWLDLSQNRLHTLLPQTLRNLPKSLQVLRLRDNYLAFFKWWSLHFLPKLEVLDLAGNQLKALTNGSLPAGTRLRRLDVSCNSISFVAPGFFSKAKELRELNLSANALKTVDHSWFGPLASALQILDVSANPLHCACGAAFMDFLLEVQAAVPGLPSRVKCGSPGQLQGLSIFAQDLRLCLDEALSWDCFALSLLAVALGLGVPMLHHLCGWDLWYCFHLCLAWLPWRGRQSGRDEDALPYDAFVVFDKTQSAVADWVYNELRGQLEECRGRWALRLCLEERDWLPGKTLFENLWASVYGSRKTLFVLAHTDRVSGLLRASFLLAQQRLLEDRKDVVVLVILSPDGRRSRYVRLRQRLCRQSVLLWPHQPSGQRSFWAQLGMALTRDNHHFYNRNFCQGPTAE
Recorded IC50 by entry
attribute.measured: IC50

# compound, attribute.measured, data.value
records = [
    ("Cc1cc(-c2[nH]c3ccc(C4CCN(CC(=O)N(C)C)CC4)cc3c2C(C)C)c2ccccc2n1 [Example 327]", "IC50", "1 to 50 µM"),
    ("CNCCN1CCC(c2ccc3[nH]c(-c4cc5cc(OC)ccc5o4)c(C)c3c2)CC1 [Example 671]", "IC50", "1 to 50 µM"),
    ("CNC(=O)CN1CCC(c2ccc3[nH]c(-c4cn(C)c5ncccc45)c(C(C)C)c3c2)CC1 [Example 293]", "IC50", "1 to 50 µM"),
    ("CC(C)c1c(-c2cc(F)c3nccn3c2)[nH]c2ccc(C3CCN(C(=O)C[C@@H](C)O)CC3)cc12 [Example 605]", "IC50", "> 50 µM"),
    ("CC(C)c1c(-c2ccnc3cnn(C)c23)[nH]c2ccc(C3CCNCC3)cc12 [Example 43]", "IC50", "1 to 50 µM"),
    ("Cc1cc(-c2[nH]c3ccc(C4CCN(C(=O)CCN5CC6(COC6)C5)CC4)cc3c2C(C)C)cn2nnnc12 [Example 631]", "IC50", "0.1 to 1 µM"),
    ("CC(C)c1c(-c2cc(C(C)(C)O)c3nccn3c2)[nH]c2ccc(C3CCN(C(=O)CN(C)C)CC3)cc12 [Example 493]", "IC50", "0.1 to 1 µM"),
    ("COc1cc(-c2[nH]c3ccc(C4CCN(C5COC5)CC4)cc3c2C(C)C)cc2ncnn12 [Example 710]", "IC50", "1 to 50 µM"),
    ("CC(C)c1c(-c2cn3ccnc3cc2C(F)(F)F)[nH]c2ccc(C3CCNCC3)cc12 [Example 135]", "IC50", "1 to 50 µM"),
    ("Cc1cc(-c2[nH]c3ccc(C4CCN(S(=O)(=O)CCO)CC4)cc3c2C(C)C)cn2nnnc12 [Example 616]", "IC50", "> 50 µM"),
    ("CC(C)c1c(-c2cnc3ccnn3c2)[nH]c2ccc(C3CCN(C(=O)CN(C)C)CC3)cc12 [Example 502]", "IC50", "0.1 to 1 µM"),
    ("Cc1cc(-c2[nH]c3ccc(C4CCN(CC(C)(C)O)CC4)cc3c2C(C)C)cc2cccnc12 [Example 771]", "IC50", "1 to 50 µM"),
    ("CC(C)c1c(-c2cc(C(F)(F)F)c3nccn3c2)[nH]c2ccc(C3CCN(Cc4cnn(C)c4)CC3)cc12 [Example 933]", "IC50", "0.1 to 1 µM"),
    ("Cc1nc(CN2CCC(c3ccc4[nH]c(-c5ccc6nccn6c5)c(CC(F)F)c4c3)CC2)c[nH]1 [Example 939]", "IC50", "0.1 to 1 µM"),
    ("Cc1cc(-c2[nH]c3ccc(C4CCN(C(=O)CN(C)C)CC4)cc3c2C(C)C)cn2ccnc12 [Example 528]", "IC50", "0.1 to 1 µM"),
    ("Cc1cc(-c2[nH]c3ccc(C4CCNCC4)cc3c2C(C)C)cn2cc(C(=O)N(C)C)nc12 [Example 265]", "IC50", "1 to 50 µM"),
]
